# EXPERIMENTAL TARGET: PPARα (Homo sapiens)
# Construct: hPPARα (279aa-580aa)
# Sequence (Q07869 167-468 limits assumed): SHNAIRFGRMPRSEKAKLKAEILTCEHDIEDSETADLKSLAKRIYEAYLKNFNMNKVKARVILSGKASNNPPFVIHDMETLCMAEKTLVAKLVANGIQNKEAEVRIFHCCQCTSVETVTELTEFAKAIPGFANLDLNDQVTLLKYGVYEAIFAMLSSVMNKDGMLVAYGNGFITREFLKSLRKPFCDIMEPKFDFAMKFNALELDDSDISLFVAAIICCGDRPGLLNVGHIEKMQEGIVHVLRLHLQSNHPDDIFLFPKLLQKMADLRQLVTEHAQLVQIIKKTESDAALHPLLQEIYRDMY
# ASSAY SUMMARY: Gal4-PPARα(LBD) reporter gene agonistic activity assay in Cos-7 cells
# TEST PARAMETERS: Cos-7 cells, Gal4-PPARα(LBD) reporter, 16 h; 100% = GW7647 10 nM
ASSAY READOUT: EC50 (nM)
One number for each entry, in nM.

CHEMICAL STRING | NUMBER
CCc1cc(Cn2ncn(-c3ccc(C(F)(F)F)cc3)c2=O)cc(CC)c1OC(C)(C)C(=O)O | 44
Cc1cc(Cn2ncn(-c3ccc(Cl)cc3)c2=O)cc(C)c1OC(C)(C)C(=O)O | 167
CCOc1ccc(-n2cnn(Cc3cc(C)c(OC(C)(C)C(=O)O)c(C)c3)c2=O)cc1 | 33

Read the next record carefully.
## Input Give the measured EC50 of CCc1ccc(-n2cnn(Cc3cc(C)c(OC(C)(C)C(=O)O)c(C)c3)c2=O)cc1 .
## Output 14

Numbers sourced from patent US20250188044A1.
